measured.attribute: melting point (°C)
The answer is to be given in °C; state only the numeric part.

See these solved cases before continuing.
compound	measurement
CCCCC1=NC2(CCCC2)C(=O)N1Cc1cccc(-c2cccc(OC(C)(C)C(=O)O)c2)c1	70
CCCCC1=NC2(CCCC2)C(=O)N1Cc1cccc(-c2ccc(OC(C)(C)C(=O)O)cc2)c1	170
CCCCC1=NC2(CCCCC2)C(=O)N1Cc1ccc(-c2cccc(OC(C(=O)O)C(C)C)c2)cc1 (stereo not drawn)	105
CCCCC1=NC(CC)(CC)C(=O)N1Cc1ccc(-c2cc(OC(C)(C)C(=O)O)ccc2F)cc1	62
CCCCC1=NC2(CCCC2)C(=O)N1Cc1cccc(-c2ccccc2OC(C)(C)C(=O)O)c1	167

Prompt line: Please report the recorded melting point for CCCCC1=NC(CC)(CC)C(=O)N1Cc1ccc(-c2cccc(OC(C(=O)O)C(C)C)c2)cc1 (stereo not drawn) .
Response line: 65

Prompt line: Looking for the measured melting point of CCCCC1=NC2(CCCC2)C(=O)N1Cc1ccc(-c2cccc(OC(C)(C)C(=O)O)c2)cc1C , can you help?
Response line: 160

Prompt line: Using the record for CCCCC1=NC2(CCCC2)C(=O)N1Cc1ccc(-c2cc(OC(C(=O)O)C(C)C)ccc2CCC)cc1 (stereo not drawn) , report its melting point.
Response line: 81

Prompt line: I'd like to know its melting point. The compound in question is CCCCC1=NC2(CCCCC2)C(=O)N1Cc1ccc(-c2cccc(OC(CC)C(=O)O)c2)cc1 (stereo not drawn)
Response line: 170

Prompt line: Consider the compound CCCCC1=NC2(CCCC2)C(=O)N1Cc1ccc(-c2ccc(CC(C)C)c(OC(C)(C)C(=O)O)c2)cc1 and give its measured melting point.
Response line: 78

---

Reported values of melting point for individual entries
Value expressed in °C; do not type the unit.

molecule	measured.attribute	measurement
CCCCC1=NC2(CCCCC2)C(=O)N1Cc1ccc(-c2cc(OC(C(=O)O)C(C)C)ccc2F)cc1 (stereo not shown)	melting point	95

Now examine the next entry.
Prompt line: Reported melting point, molecule CCCCC1=NC(CC)(CC)C(=O)N1Cc1ccc(-c2cccc(OC(C)C(=O)O)c2)cc1 (stereo not shown) : ____
Response line: 186

---

Here the recorded EC50 is given for each entry.
- system.name: hPPARγ (Homo sapiens, UniProt P37231)
- Construct: DNA fragments amplified by PCR and corresponding to the DEF domains of human PPARα, PPARγ, and PPARδ nuclear receptors; expressed in transfected cells; host or cells: COS-7
- Sequence (P37231 238-503 limits assumed): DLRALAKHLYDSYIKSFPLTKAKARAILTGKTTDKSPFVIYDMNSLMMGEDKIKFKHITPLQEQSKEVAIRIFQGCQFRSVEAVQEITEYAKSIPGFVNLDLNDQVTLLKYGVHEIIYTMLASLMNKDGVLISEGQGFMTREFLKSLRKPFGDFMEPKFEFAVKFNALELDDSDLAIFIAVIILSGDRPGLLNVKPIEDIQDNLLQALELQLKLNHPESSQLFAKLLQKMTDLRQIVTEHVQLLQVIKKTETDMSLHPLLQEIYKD
- assay.overview: Gal4-hPPARγ transactivation in COS-7 cells (luciferase)
- Type: cell-based
- condition.set: Gal4-hPPARγ chimera, COS-7 cells, 24 hours
Your answer is read as µM, so omit the unit and give the number.

CCCCC1=NC2(CCCCC2)C(=O)N1Cc1ccc(-c2cccc(OC(C)(C)C(=O)O)c2)cc1 1

Now look at this one.
Prompt line: Any idea what EC50 was measured for CCCCC1=NC2(CCCC2)C(=O)N1Cc1ccc(-c2cccc(OC(C)(C)C(=O)O)c2)cc1 ?
Response line: 8

---

# maps each entry to its melting point
State the answer as a number, implicitly in °C.

Prompt line: Fill blank: measured melting point of the compound CCCCC1=NC2(CCCCC2)C(=O)N1Cc1ccc(-c2cccc(OC(C)C(=O)O)c2)c(C)c1 (centres unmarked) [Compound 70] is ____.
Response line: 81
